# inhibition listing for each entry below
Biological target: Tyrosine-protein kinase SYK (Homo sapiens) (UniProt P43405)
Conditions: at 0.1 µM
Lab book: enter the figure in %, no units written.

>>> observed_measurement("Clc1ccc(CNc2nccc(-c3cnn4ncccc34)n2)cc1")
2.92
>>> observed_measurement("COc1cc(C)c(N(C)C(=O)CN(C)C)cc1Nc1nc(Nc2cccc(F)c2C(N)=O)c2cc[nH]c2n1")
-0.33
>>> observed_measurement("COc1cc(Nc2ncc3c(C)nc(-c4cccc(C(F)(F)F)c4)n3n2)cc(OC)c1OC")
-1.19
>>> observed_measurement("CCc1ccc(Oc2nccc(-c3c(-c4ccc(F)cc4)ncn3C3CCNCC3)n2)cc1")
0.89
>>> observed_measurement("CCC(=O)Nc1ccc(C)c(-c2ccc(C(=O)NCC3CC3)cc2)c1")
3.61

// next item, inhibition requested
Req: Test system Tyrosine-protein kinase SYK (Homo sapiens) (UniProt P43405); read-out inhibition; what value for CS(=O)(=O)CCNCc1ccc(-c2ccc3ncnc(Nc4ccc(OCc5ccccc5)c(Br)c4)c3c2)o1 ?;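 also: reported percentages are mean inhibition values for SYK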
Resp: -1.09
